Target: MAPKAP-K2 (Homo sapiens, UniProt P49137)
Sequence (P49137 whole entry): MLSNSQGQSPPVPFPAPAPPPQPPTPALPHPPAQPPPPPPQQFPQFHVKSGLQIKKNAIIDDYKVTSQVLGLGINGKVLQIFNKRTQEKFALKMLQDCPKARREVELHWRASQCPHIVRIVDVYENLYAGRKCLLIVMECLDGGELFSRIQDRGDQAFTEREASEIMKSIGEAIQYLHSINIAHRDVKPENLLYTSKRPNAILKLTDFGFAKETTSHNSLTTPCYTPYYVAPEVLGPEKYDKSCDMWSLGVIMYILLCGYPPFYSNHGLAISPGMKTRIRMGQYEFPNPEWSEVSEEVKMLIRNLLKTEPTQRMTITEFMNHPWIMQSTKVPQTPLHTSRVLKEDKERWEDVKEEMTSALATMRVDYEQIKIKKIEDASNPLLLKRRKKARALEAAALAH
Test: MAPKAP-Kinase 2 Assay (33P-ATP peptide phosphorylation, filter plate)
Assay type: biochemical
Design: key: +: active; ++: more active; +++: very active
Settings: assays conducted at typically 1-100 μM
experimental-endpoint: MAPKAP-K2 activity

// known answers, use as guide
compound: CC(Nc1cc(N[C@H]2CC[C@H](N)CC2)nc2ccnn12)c1ccc(F)cc1 (some centres unmarked)
target-or-test-system: MAPKAP-K2 (Homo sapiens, UniProt P49137)
MAPKAP-K2 activity: +
--
compound: CS(=O)(=O)NC1CCC(Nc2cc(Nc3ccc(F)c(Cl)c3)n3nccc3n2)CC1 (centres unmarked)
target-or-test-system: MAPKAP-K2 (Homo sapiens, UniProt P49137)
MAPKAP-K2 activity: +
--
compound: N[C@H]1CC[C@H](Nc2cc(Nc3cccc(Br)c3)n3nccc3n2)CC1
target-or-test-system: MAPKAP-K2 (Homo sapiens, UniProt P49137)
MAPKAP-K2 activity: +++
--
compound: CC(CN(C)C)N[C@H]1CC[C@H](Nc2cc(Nc3ccc(F)c(Cl)c3)n3nccc3n2)CC1 (some centres unmarked)
target-or-test-system: MAPKAP-K2 (Homo sapiens, UniProt P49137)
MAPKAP-K2 activity: +
--
compound: N[C@H]1CC[C@H](Nc2cc(Nc3ccc(F)c(Cl)c3)n3nccc3n2)CC1 [Compound 2]
target-or-test-system: MAPKAP-K2 (Homo sapiens, UniProt P49137)
MAPKAP-K2 activity: +++
--
compound: NCCCNc1cc(Nc2ccc(F)c(Cl)c2)n2nccc2n1
target-or-test-system: MAPKAP-K2 (Homo sapiens, UniProt P49137)
MAPKAP-K2 activity: +
--
compound: Fc1ccc(Nc2cc(NC3CCC(NCc4ccoc4)CC3)nc3ccnn23)cc1Cl (centres unmarked)
target-or-test-system: MAPKAP-K2 (Homo sapiens, UniProt P49137)
MAPKAP-K2 activity: ++

IN: Suppose we examine the compound COc1ccc(Nc2cc(NC3CCC(N)CC3)nc3ccnn23)c(C)c1 (centres unmarked) ; what MAPKAP-K2 activity value has been reported?
OUT: ++

---

Target: UniProt:P49137
Assay: MAPKAP-Kinase 2 Assay (33P-ATP peptide phosphorylation, filter plate)
Type: biochemical
Design: key: +: active; ++: more active; +++: very active
Details: assays conducted at typically 1-100 μM
experimental-endpoint: MAPKAP-K2 activity

molecule: NC1CCC(Nc2cc(Nc3ccc4c(c3)OC(F)(F)O4)n3nccc3n2)CC1 (stereo not drawn) [Compound 55]
result: ++

molecule: Fc1ccc(Nc2cc(NC3CCCNC3)nc3ccnn23)cc1Cl (stereo not drawn) [Compound 74]
result: +++

molecule: NC1CCC(Nc2cc(Nc3ccccc3I)n3nccc3n2)CC1 (stereo not drawn) [Compound 101]
result: +++

molecule: NC1CCC(Nc2cc(NCCc3ccccc3)n3nccc3n2)CC1 (stereo not drawn) [Compound 29]
result: ++

molecule: N[C@H]1CC[C@H](Nc2cc(Nc3ccc(F)cc3F)n3nccc3n2)CC1 [Compound 22]
result: +++

IN: Which MAPKAP-K2 activity value is on record for Fc1ccc(Nc2cc(NC3CCC(NCCCCCc4ccccc4)CC3)nc3ccnn23)cc1Cl (stereo not drawn) [Compound 132] ?
OUT: ++

IN: Quick check: MAPKAP-K2 activity of O=C(NC1CCC(Nc2cc(Nc3ccc(F)c(Cl)c3)n3nccc3n2)CC1)c1ccccc1 (stereo not drawn) [Compound 28] ?
OUT: +

IN: Can you look up the measured MAPKAP-K2 activity of NC1CCN(c2cc(Nc3ccc(F)c(Cl)c3)n3nccc3n2)CC1 [Compound 95] for me?
OUT: +

IN: I am curious: what MAPKAP-K2 activity value has been reported for COc1ccc(Nc2cc(NC3CCC(N)CC3)nc3ccnn23)c(OC)c1OC (stereo not drawn) [Compound 103] ?
OUT: ++

---

Molecular target: MAPKAP-K2 (Homo sapiens)
Test: MAPKAP-Kinase 2 Assay (33P-ATP peptide phosphorylation, filter plate)
Type: biochemical
Design: key: +: active; ++: more active; +++: very active
Conditions: assays conducted at typically 1-100 μM
experimental-endpoint: MAPKAP-K2 activity

Solved cases below.
compound: CN[C@H]1CC[C@H](Nc2cc(Nc3ccc(F)c(Cl)c3)n3nccc3n2)CC1
MAPKAP-K2 activity: +++
//
compound: C#CC(C)(C)Nc1cc(NC2CCC(N)CC2)nc2ccnn12 (centres unmarked)
MAPKAP-K2 activity: ++
//
compound: Cc1ccc(Nc2cc(N[C@H]3CC[C@H](N)CC3)nc3ccnn23)cc1C
MAPKAP-K2 activity: +++
//
compound: N[C@H]1CC[C@H](Nc2cc(Nc3ccc(F)c(Cl)c3)n3nccc3n2)CC1 [Compound 18]
MAPKAP-K2 activity: +
//
compound: Fc1ccc(Nc2cc(NC3CCC(NCc4ccccc4)CC3)nc3ccnn23)cc1Cl (centres unmarked)
MAPKAP-K2 activity: +

IN: Any idea what MAPKAP-K2 activity was measured for C=CCNc1cc(NC2CCC(N)CC2)nc2ccnn12 (centres unmarked) ?
OUT: ++

IN: Entry CNC(=S)N[C@H]1CC[C@H](Nc2cc(Nc3ccc(F)c(Cl)c3)n3nccc3n2)CC1 : reported MAPKAP-K2 activity = ?
OUT: +

IN: Consider the compound c1ccc(COc2cccc(Nc3cc(NC4CCCNC4)nc4ccnn34)c2)cc1 (centres unmarked) and give its measured MAPKAP-K2 activity.
OUT: +++

IN: Entry NC1CCC(Nc2cc(NCc3cccc(I)c3)n3nccc3n2)CC1 (centres unmarked) : reported MAPKAP-K2 activity = ?
OUT: ++

IN: Entry CC(C)(C)c1ccc(Nc2cc(NC3CCC(N)CC3)nc3ccnn23)cc1 (centres unmarked) : reported MAPKAP-K2 activity = ?
OUT: ++

IN: What does the record list as MAPKAP-K2 activity for NC1CCC(Nc2cc(Nc3ccc4c(c3)OCO4)n3nccc3n2)CC1 (centres unmarked) ?
OUT: +++

IN: Which value of MAPKAP-K2 activity has been reported for Fc1ccc(Nc2cc(N[C@H]3CC[C@H](NC4CCC(c5ccccc5)CC4)CC3)nc3ccnn23)cc1Cl (some centres unmarked) in the records?
OUT: +

IN: // MAPKAP-K2 activity lookup, key: CN1CCC(N[C@H]2CC[C@H](Nc3cc(Nc4ccc(F)c(Cl)c4)n4nccc4n3)CC2)CC1
OUT: +++

IN: Which MAPKAP-K2 activity reading was recorded for the compound N[C@H]1CC[C@H](Nc2cc(Nc3ccc4c(c3)OC(F)(F)O4)n3nccc3n2)CC1 ?
OUT: ++

IN: Requested read-out: MAPKAP-K2 activity. Entry: COc1ccccc1Nc1cc(NC2CCCNC2)nc2ccnn12 (centres unmarked)
OUT: ++

IN: Find the recorded MAPKAP-K2 activity belonging to N[C@H]1CC[C@H](Nc2cc(Nc3c(Cl)cccc3Cl)n3nccc3n2)CC1 and report it.
OUT: +++

IN: Tell me the measured MAPKAP-K2 activity of NC1CCC(Nc2cc(Nc3ccc(Oc4cccc(C(F)(F)F)c4)cc3)n3nccc3n2)CC1 (centres unmarked) , please.
OUT: +++

IN: Please give the measured MAPKAP-K2 activity for this compound: CCCCCNC1CCC(Nc2cc(Nc3ccc(F)c(Cl)c3)n3nccc3n2)CC1 (centres unmarked)
OUT: ++

---

Target: MAPKAP-K2 (Homo sapiens)
Test: MAPKAP-Kinase 2 Assay (33P-ATP peptide phosphorylation, filter plate)
Type: biochemical
Parameters: key: +: active; ++: more active; +++: very active
Conditions: assays conducted at typically 1-100 μM
Protocol: MAPKAP-Kinase 2 Assay [Compound Preparation] Compounds are dissolved in DMSO at a concentration of 3 mM and stored in aliquots at −20° C. Compounds in DMSO from these stock aliquots are diluted in 30% DMSO to produce initial working stock solutions of 1 mM and 3 mM. Both of these stock solutions are then subjected to 1:10 serial dilutions in 30% DMSO in order to prepare 3000, 1000, 300, 100, 30, 10, 3, 1, 0.1, 0.01 μM stock solutions. […]
experimental-endpoint: MAPKAP-K2 activity

Example entries begin here.
compound: N[C@H]1CC[C@H](Nc2cc(NCc3ccccn3)n3nccc3n2)CC1
MAPKAP-K2 activity: ++
--
compound: N[C@H]1CC[C@H](Nc2cc(Nc3ccc(Oc4ccccc4)cc3)n3nccc3n2)CC1
MAPKAP-K2 activity: +++
--
compound: NCCCCNc1cc(Nc2ccc(F)c(Cl)c2)n2nccc2n1
MAPKAP-K2 activity: +
--
compound: Cc1cccc(Nc2cc(NC3CCC(N)CC3)nc3ccnn23)c1 (stereo not drawn)
MAPKAP-K2 activity: +++
--
compound: NC1CCN(c2cc(Nc3ccc(F)c(Cl)c3)n3nccc3n2)C1 (stereo not drawn)
MAPKAP-K2 activity: +

With those in mind, consider the next compound.
IN: Please state recorded MAPKAP-K2 activity (tested on MAPKAP-K2 (Homo sapiens)) of COc1cccc(Nc2cc(NC3CCCNC3)nc3ccnn23)c1 (stereo not drawn)
OUT: +++
